The measurements presented in this section are drawn from BigSolDB 2.1.

CONDITION: in water, 288.15 K
RESULT_TYPE: solubility (mole fraction)
Reply: number alone, nothing else.

Prompt: Requested field: solubility (mole fraction). Item: `CC(C)C(=O)Nc1ccc([N+](=O)[O-])c(C(F)(F)F)c1`
Completion: 4.02e-07

* * *

CONDITION: in acetonitrile, 283.15 K
RESULT_TYPE: solubility (mole fraction)
Reply: number alone, nothing else.

Prompt: Requested field: solubility (mole fraction). Item: `CC(C)C(=O)Nc1ccc([N+](=O)[O-])c(C(F)(F)F)c1`
Completion: 0.0749

* * *

CONDITION: in water, 298.15 K
RESULT_TYPE: solubility (mole fraction)
Reply: number alone, nothing else.

Prompt: Requested field: solubility (mole fraction). Item: `CC(C)C(=O)Nc1ccc([N+](=O)[O-])c(C(F)(F)F)c1`
Completion: 6.68e-07
